Target: FAAH (Homo sapiens)
Construct: endogenous in cells
Sequence (O00519 whole entry): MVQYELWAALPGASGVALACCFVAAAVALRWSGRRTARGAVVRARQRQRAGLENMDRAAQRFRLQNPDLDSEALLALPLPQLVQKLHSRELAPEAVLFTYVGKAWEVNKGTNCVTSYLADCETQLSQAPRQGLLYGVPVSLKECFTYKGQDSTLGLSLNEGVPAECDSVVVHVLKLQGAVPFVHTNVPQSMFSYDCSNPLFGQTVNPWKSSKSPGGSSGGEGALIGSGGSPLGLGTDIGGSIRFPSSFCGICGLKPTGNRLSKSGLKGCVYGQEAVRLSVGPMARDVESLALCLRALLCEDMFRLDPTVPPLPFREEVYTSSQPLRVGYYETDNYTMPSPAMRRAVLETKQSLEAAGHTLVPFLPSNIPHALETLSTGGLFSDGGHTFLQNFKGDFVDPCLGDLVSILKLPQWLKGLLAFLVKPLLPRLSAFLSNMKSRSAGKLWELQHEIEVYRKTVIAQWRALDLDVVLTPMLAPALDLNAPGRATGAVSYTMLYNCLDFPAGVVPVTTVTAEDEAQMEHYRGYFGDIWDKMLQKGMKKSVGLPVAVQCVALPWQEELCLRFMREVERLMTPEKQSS
Test: FAAH activity: hydrolysis of [3H]-AEA in U937 cell homogenates
Settings: [3H]-AEA hydrolysis, final 100 nM AEA, read-out: FAAH inhibition IC50
pIC50: −log10 of the molar value.
Readings of pIC50 for the listed compounds

Previously resolved entries follow.
COc1ccc(N2C(=O)/C(=C/c3ccc4[nH]cnc4c3)S/C2=N\Cc2ccccc2)cc1 [04_C_F]	< 5.00
O=C1/C(=C/c2ccc3c(c2)OCCO3)S/C(=N\c2ccccc2)N1C1CCCCC1 [24_N_I]	< 4.00
CC(C)CN1C(=O)/C(=C/c2ccc3c(c2)OCCO3)S/C1=N\c1ccccc1 [24_N_X]	< 4.00
COc1ccc(C/N=C2\S/C(=C\c3ccc4c(c3)OCCO4)C(=O)N2c2ccc(C)cc2)cc1 [24_Q_A]	< 4.00
Cc1ccc(/N=C2\S/C(=C\c3ccc4c(c3)OCCO4)C(=O)N2c2ccc(C)cc2)cc1 [24_A_A]	< 4.00

**Q:** Lab note: record pIC50 of CC(C)CN1C(=O)/C(=C/c2ccc(CO)cc2)S/C1=N\c1ccc(F)cc1 [22_B_X] tested on FAAH (Homo sapiens).
**A:** 4.72

**Q:** Lab note: record pIC50 of Cc1ccc(/N=C2\S/C(=C\c3ccc(CO)cc3)C(=O)N2c2ccccc2)cc1 [22_A_N] tested on FAAH (Homo sapiens).
**A:** 4.71

**Q:** Lab note: record pIC50 of O=C1/C(=C/c2ccc3c(c2)OCCO3)S/C(=N\c2ccccc2)N1c1ccccc1 [compound 24] tested on FAAH (Homo sapiens).
**A:** < 4.00

**Q:** Lab note: record pIC50 of COc1ccc(/N=C2\S/C(=C\c3ccc4[nH]cnc4c3)C(=O)N2c2ccccc2)cc1 [04_F_N] tested on FAAH (Homo sapiens).
**A:** < 4.00

**Q:** Lab note: record pIC50 of O=C1/C(=C/c2ccc3c(c2)OCCO3)S/C(=N\Cc2ccccc2)N1c1ccc(F)cc1 [24_C_B] tested on FAAH (Homo sapiens).
**A:** < 4.00

* * *

System: AEA cellular uptake (U937 cells)
Assay: [3H]-AEA cellular uptake inhibition in U937 cells
Assay type: cell-based
Details: Homo sapiens, U-937, U937 cells, final 100 nM AEA with 0.5 nM [3H]-AEA, 15 min at 37° C.; read-out: AEA uptake inhibition IC50
Readings of log10 of IC50 for the listed compounds
Please keep in mind that the values are log10 of IC50 expressed in nM.

Previously resolved entries follow.
O=C1/C(=C/c2ccccc2)S/C(=N\c2ccccc2)N1c1ccccc1	3.44
Cc1ccc(/N=C2\S/C(=C\c3ccc(CO)cc3)C(=O)N2c2ccccc2)nc1 [drawing 143]	3.16
COc1cc(/C=C2\S/C(=N\c3ccccc3)N(c3ccccc3)C2=O)ccn1	3.74
Cn1ncc2cc(/C=C3\S/C(=N\c4ccccc4)N(c4ccccc4)C3=O)ccc21 [drawing 126]	2.71

**Q:** Specify log10 of IC50 for Cc1ccc(/N=C2\S/C(=C\c3ccc4[nH]cnc4c3)C(=O)N2c2ccccc2)nc1 [drawing 146] and stop.
**A:** 3.20

**Q:** Specify log10 of IC50 for O=C1/C(=C/c2ccc3[nH]ccc3c2)S/C(=N\c2ccccc2)N1Cc1ccco1 [drawing 153] and stop.
**A:** 2.94

**Q:** Specify log10 of IC50 for CCCCN1C(=O)/C(=C/c2ccc3[nH]cnc3c2)S/C1=N\c1ccccc1 [drawing 154] and stop.
**A:** 2.75

**Q:** Specify log10 of IC50 for COc1ccc(/N=C2\S/C(=C\c3ccc4[nH]cnc4c3)C(=O)N2c2ccccc2)cc1 [drawing 147] and stop.
**A:** 2.21

**Q:** Specify log10 of IC50 for `COc1cncc(/C=C2\S/C(=N\c3ccccc3)N(c3ccccc3)C2=O)c1` and stop.
**A:** 3.83

**Q:** Specify log10 of IC50 for `COc1ccc(/C=C2\S/C(=N\c3ccccc3)N(Cc3ccccc3)C2=O)cc1` and stop.
**A:** 3.36

**Q:** Specify log10 of IC50 for O=C1/C(=C/c2ccc3[nH]cnc3c2)S/C(=N\c2ccccc2)N1c1ccccc1 [drawing 109] and stop.
**A:** 2.29

**Q:** Specify log10 of IC50 for `Cc1ccc(/N=C2\S/C(=C\c3ccc4[nH]ccc4c3)C(=O)N2c2ccccc2)nc1` and stop.
**A:** 3.44

* * *

Tested on: AEA cellular uptake (U937 cells)
Assay: [3H]-AEA cellular uptake inhibition in U937 cells
Format: cell-based
Details: Homo sapiens, U-937, U937 cells, final 100 nM AEA with 0.5 nM [3H]-AEA, 15 min at 37° C.; read-out: AEA uptake inhibition IC50
Experimental: [^3H]-AEA Cellular Uptake Screening for AEA cellular uptake inhibition was performed in a semi-automated procedure: Pipetting and washing steps were performed by a Biomek3000 laboratory workstation. […] The ETI-T compounds were measured at up to 7 concentrations in triplicates from 100 pM-100 μM. […] Radioactivity was measured by liquid scintillation counting on a PerkinElmer Wallac Trilux MicroBeta 1450 during 2 min. […]
Readings of pIC50 for the listed compounds
# pIC50: negative log10 of molar concentration; output just the value

Previously resolved entries follow.
O=C1/C(=C/c2ccc3[nH]c(=O)oc3c2)S/C(=N\c2ccccc2)N1c1ccccc1	5.25
COc1ccc(/N=C2\S/C(=C\c3ccc(CO)cc3)C(=O)N2c2ccccc2)cc1 [drawing 140]	6.87
COc1ccc(/C=C2\S/C(=N\c3ccc(C)cn3)N(c3ccccc3)C2=O)cc1	5.55
O=C1/C(=C/c2ccc3occc3c2)S/C(=N\c2ccccc2)N1c1ccccc1	5.49
COc1ccc(/C=C2\S/C(=N\c3ccc(OC)cc3)N(c3ccccc3)C2=O)cc1	5.76
O=C1/C(=C/c2ccc3[nH]cnc3c2)S/C(=N\Cc2ccccc2)N1c1ccccc1	5.67
Cc1ccc(/N=C2\S/C(=C\c3ccc(CO)cc3)C(=O)N2c2ccccc2)cc1 [drawing 141]	6.95
COc1ccc(/C=C2\S/C(=N\c3ccccc3)N(c3ccccc3)C2=O)cc1	5.67
O=C1/C(=C/c2ccccc2)S/C(=N\c2ccccc2)N1Cc1ccccc1	5.27
COCc1cccc(/C=C2\S/C(=N\c3ccccc3)N(c3ccccc3)C2=O)c1 [drawing 117]	6.00

**Q:** Lab note: record pIC50 of `O=C1/C(=C/c2ccc3sccc3c2)S/C(=N\c2ccccc2)N1c1ccccc1` tested on AEA cellular uptake (U937 cells).
**A:** 5.33

**Q:** Lab note: record pIC50 of O=C1/C(=C/c2ccc3[nH]ccc3c2)S/C(=N\c2ccccc2)N1c1ccccc1 [drawing 108] tested on AEA cellular uptake (U937 cells).
**A:** 6.14

**Q:** Lab note: record pIC50 of `C/N=C1\S/C(=C\c2ccc(OC)cc2)C(=O)N1c1ccccc1` tested on AEA cellular uptake (U937 cells).
**A:** 5.16

**Q:** Lab note: record pIC50 of `COc1ccc(/C=C2\S/C(=N\c3ccccc3)N(c3ccc(OC)cc3)C2=O)cc1` tested on AEA cellular uptake (U937 cells).
**A:** 5.14
